- experimental-protocol: Assessment of brain penetrability in mice (plasma and brain PK)
- Assay type: in vivo
- condition-summary: male, BALB/cAJcl-nu/nu, mouse, oral; 80 mg/kg; brain AUC0-24 hr / plasma AUC0-24 hr
property-name: Kp
Write the number on its own, no unit after it.

## Input For the compound C#Cc1c(-c2cnc3ccccc3c2)c2c(N)ncnc2n1C12CCC(NC(=O)c3cnc(C)cn3)(CC1)C2 [TAS3351] , what Kp is on record?
## Output 0.69

====

- experimental-protocol: Assessment of brain penetrability in mice (plasma and brain PK)
- Type: in vivo
- condition-summary: male, BALB/cAJcl-nu/nu, mouse, oral; 20 mg/kg; brain AUC0-24 hr / plasma AUC0-24 hr
property-name: Kp

## Input For the compound C#Cc1c(-c2cnc3ccccc3c2)c2c(N)ncnc2n1C12CCC(NC(=O)c3cnc(C)cn3)(CC1)C2 , what Kp is on record?
## Output 0.32

Measured values drawn from paper PMC13181001 for this set.
